B1: Hairpin Ribozyme (parent)
chain: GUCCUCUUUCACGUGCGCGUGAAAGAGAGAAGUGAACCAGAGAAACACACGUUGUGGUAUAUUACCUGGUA

Variants of: B1
Experiment: self-cleavage, relative activity (ratio to wild type); higher = more cleavage; co-transcriptional
What self-cleavage was measured for each of the following?
Give bare numbers.

alteration="C6G A49C" reported=0.0827
alteration="C46A A71G" reported=0.24
alteration="A23C C66A" reported=0.218
alteration="G25C G27U" reported=0.164
alteration="A41C A59U" reported=0.173
alteration="U9C U20A" reported=0.692
alteration="G27A U62G" reported=0.221
alteration="A36G A47C" reported=0.372

Batch request: self-cleavage for each of the following variants.
1. C46U C48A
2. A11U C65A
3. U9G A47U
4. C10U G25U
5. G21C C46G

0.203
0.719
0.0873
0.509
0.162

Batch request: self-cleavage for each of the following variants.
1. A11U C16G
2. C38U A44C
3. G34U U63A
4. C18G C66A
5. C4U A36C
6. G29A U60G

1. 0.653
2. 0.0457
3. 0.243
4. 0.194
5. 0.145
6. 0.0375

Batch request: self-cleavage for each of the following variants.
1. G29C C66A
2. C4G G17A
3. C38U G42A

1: 0.182; 2: 0.159; 3: 0.132
